EXPERIMENTAL_TARGET: hAM1R (human, UniProt Q16602)
EXPERIMENT_DESCRIPTION: cell-based or functional assay
Numbered stars: 1 amine (or outer) side, 2 acyl side, 3 side chain; on linkers, the order of the positions; unused ones are H or OH. Bridge positions count the residues as written; N and C are the ends. Square brackets hold non-standard residues; d marks the D form. Side chains are listed from the residue outwards. Ends that are not written are not given here. * marks the point of attachment. C20 diacid = O=C(O)CCCCCCCCCCCCCCCCCCC(=O)*; γGlu = O=C(O)[C@H](CCC(=O)[*:2])N[*:1]; Hyp = O=C(O)[C@@H]1C[C@@H](O)CN1; Cit = NC(=O)NCCC[C@H](N)C(=O)O; AEEA = NCCOCCOCC(=O)O
MEASUREMENT_TYPE: hAM1R EC50 (cAMP)

Returns the measured hAM1R EC50 (cAMP) for the input binder. Input: {C20 diacid-γGlu}-KCNTSTCTVQRLAHQIAQFTDKDKDNVAPPTNVGSNG[Hyp]-NH2 (disulfide 2-7 (inferred); not fully specified; ends not checked) [SEQ ID NO: 62]
> 5 µM

Next record, please: KCNTATCTVQ[Cit]LAHQIYQFTDKDKDNVAPTNVGSNG[Hyp]-NH2 (disulfide 2-7 (inferred); ends not checked) [SEQ ID NO: 255]
> 5 µM

And what about the binder KCNTATCTVQRLAEQIYQFTDKDKK([AEEA-AEEA-γGlu-C20 diacid])NVAPPTNVGSNG[Hyp]-NH2 (disulfide 2-7 (inferred); not fully specified (N-terminus); ends not checked) [SEQ ID NO: 40] ?
> 5 µM
